// data source = patent US20040116420A1

TESTED_ON: HSV-1 protease (Human herpesvirus 1, UniProt P10210)
Sequence (P10210 1-247): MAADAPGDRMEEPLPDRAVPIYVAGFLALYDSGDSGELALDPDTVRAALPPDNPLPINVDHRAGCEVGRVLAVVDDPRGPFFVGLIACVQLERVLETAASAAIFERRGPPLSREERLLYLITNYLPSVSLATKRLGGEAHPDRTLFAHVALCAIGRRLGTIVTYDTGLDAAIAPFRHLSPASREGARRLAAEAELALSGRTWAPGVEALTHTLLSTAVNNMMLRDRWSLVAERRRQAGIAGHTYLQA
So basically, if IC50 comes in under 1000 nM it's fulfilled, and if it's 1000 nM or more it's not fulfilled.

Cc1c(NC(=O)CCNC(=O)OC(C)(C)C)ccc2nc(NCC(=O)N(C)CCc3ccccn3)oc(=O)c12 = fulfilled
CC(=O)OC(C(=O)Nc1ccc2nc(NC(C)(C)C(=O)N(C)CCc3ccccn3)oc(=O)c2c1C)c1ccccc1 (stereo not drawn) = not fulfilled
Cc1c(NC(=O)CCCNC(=O)OC(C)(C)C)ccc2nc(N[C@@H](C)C(=O)N(C)CCc3ccccn3)oc(=O)c12 = not fulfilled
Cc1c(NC(=O)OC(C)(C)C)ccc2nc(N[C@H](C(=O)N(C)Cc3ccccn3)C(C)C)oc(=O)c12 = not fulfilled
Cc1c(NC(=O)OC(C)(C)C)ccc2nc(N(C)[C@@H](C)C(=O)NCc3ccccn3)oc(=O)c12 = fulfilled

Please find the next compound below.
Q: Input COc1ccccc1C(=O)Nc1ccc2nc(NC(C)(C)C(=O)N(C)CCc3ccccn3)oc(=O)c2c1C ; condition: IC50 strictly below 1000 nM. Does it hold?
Result: not fulfilled

---

TESTED_ON: UniProtKB P10210
pIC50: −log10 of the molar value.
We use 6 as the dividing line for pIC50: on or above the line is rule met, below is rule not met.

Recorded results for 4 molecules are shown here.
CCCCc1ccc(C(=O)NCCCC(=O)Nc2ccc3nc(N[C@@H](C)C(=O)N(C)CCc4ccccn4)oc(=O)c3c2C)cc1 = rule met
CCCCc1ccc(C(=O)NCCC(=O)Nc2ccc3nc(N[C@@H](C)C(=O)N(C)CCc4ccccn4)oc(=O)c3c2C)cc1 = rule not met
Cc1c(NC(=O)c2cccc([N+](=O)[O-])c2)ccc2nc(NC(C)(C)C(=O)N(C)CCc3ccccn3)oc(=O)c12 = rule not met
Cc1c(NC(=O)OC(C)(C)C)ccc2nc(N[C@@H](CC(C)C)C(=O)N(C)Cc3ccccn3)oc(=O)c12 = rule not met

Q: API: above_or_equal(metric=pIC50, cutoff=6) for item Cc1c(NC(=O)CCl)ccc2nc(NC(C)(C)C(=O)N(C)CCc3ccccn3)oc(=O)c12
Result: rule not met

Q: Can Cc1c(NC(=O)OC(C)(C)C)ccc2nc(N3C[C@H](OCc4ccccc4)C[C@H]3C(=O)N(C)CCc3ccccn3)oc(=O)c12 be said to have pIC50 at or above 6?
Result: rule not met

Q: Dear colleague, could you confirm whether Cc1c(NC(=O)OC(C)(C)C)ccc2nc(N[C@@H](CC3CCCCC3)C(=O)N(C)CCc3ccncc3)oc(=O)c12 has pIC50 at or above 6?
Result: rule not met

Q: Is reported pIC50 greater than or equal to 6 here: Cc1c(NC(=O)CCCNC(=O)OC(C)(C)C)ccc2nc(NC(C)(C)C(=O)N(C)CCc3ccccn3)oc(=O)c12
Result: rule met

---

Tested on: Vero cells
TEST_DESCRIPTION: Cytotoxicity, Vero cells, Alamar Blue
Type: cell-based
MEASUREMENT_PARAMETERS: 25 μM, 20 hours
Please note: Cell viability (% of control) exactly at 90% is label 0. Only values below 90% get label 1.

Please review the following examples before continuing.
Cc1c(NC(=O)CCl)ccc2nc(NC(C)(C)C(=O)N(C)CCc3ccccn3)oc(=O)c12 = label 1
Cc1c(NC(=O)OC(C)(C)C)ccc2nc(N3C[C@H](OCc4ccccc4)C[C@H]3C(=O)NCc3ccncc3)oc(=O)c12 = label 1
Cc1c(NC(=O)OC(C)(C)C)ccc2nc(N[C@H](C(=O)N(C)Cc3ccccn3)C(C)C)oc(=O)c12 = label 0
CCCCOc1ccc(C(=O)Nc2ccc3nc(NC(C)(C)C(=O)N(C)CCc4ccccn4)oc(=O)c3c2C)cc1 = label 1

Q: Is Cell viability (% of control) strictly under 90% for the entry Cc1c(NC(=O)OC(C)(C)C)ccc2nc(N(C)[C@@H](Cc3ccccc3)C(=O)NCc3cccnc3)oc(=O)c12 ?
Result: label 1

Q: is_below(Cell viability (% of control), 90%) for Cc1c(NC(=O)c2ccc3c(c2)OCO3)ccc2nc(NC(C)(C)C(=O)N(C)CCc3ccccn3)oc(=O)c12 ?
Result: label 1

Q: Does the reported Cell viability (% of control) of Cc1c(NC(=O)CCCNC(=O)c2ccc(N(C)C)cc2)ccc2nc(NC(C)(C)C(=O)N(C)CCc3ccccn3)oc(=O)c12 stay below 90%?
Result: label 0

Q: Determine if Cc1c(NC(=O)OC(C)(C)C)ccc2nc(N[C@H](C(=O)N(C)CCc3cccnc3)C(C)C)oc(=O)c12 shows Cell viability (% of control) strictly lower than 90%.
Result: label 0
